# Tested on: barnyardgrass (Echinochloa crus-galli)
# Assay: Test B postemergence
# Format: in vivo
# Test Conditions: Rate 125 g/ha, scale 0 (no effect) to 100 (complete control), 13 to 15 days
Readout Type: Plant response rating, Barnyardgrass

>  <Compound>
Cc1ccc(N2CCC(n3ccc(C(C)(C)C)n3)C2=O)cc1OC(F)F (stereo not drawn)

>  <Reported Result>
0

$$$$
>  <Compound>
CCC(C)c1ccn(C2CCN(c3cccc(OC)c3)C2=O)n1 (stereo not drawn)

>  <Reported Result>
0

$$$$
>  <Compound>
CC(C)(C)c1ccn(C2CCN(c3cccc(OC(F)(F)C(F)F)c3)C2=O)n1 (stereo not drawn)

>  <Reported Result>
0

$$$$
